- system-name: RNA-directed RNA polymerase (Hepacivirus hominis, UniProt O39930)
- Sequence (O39930 whole entry): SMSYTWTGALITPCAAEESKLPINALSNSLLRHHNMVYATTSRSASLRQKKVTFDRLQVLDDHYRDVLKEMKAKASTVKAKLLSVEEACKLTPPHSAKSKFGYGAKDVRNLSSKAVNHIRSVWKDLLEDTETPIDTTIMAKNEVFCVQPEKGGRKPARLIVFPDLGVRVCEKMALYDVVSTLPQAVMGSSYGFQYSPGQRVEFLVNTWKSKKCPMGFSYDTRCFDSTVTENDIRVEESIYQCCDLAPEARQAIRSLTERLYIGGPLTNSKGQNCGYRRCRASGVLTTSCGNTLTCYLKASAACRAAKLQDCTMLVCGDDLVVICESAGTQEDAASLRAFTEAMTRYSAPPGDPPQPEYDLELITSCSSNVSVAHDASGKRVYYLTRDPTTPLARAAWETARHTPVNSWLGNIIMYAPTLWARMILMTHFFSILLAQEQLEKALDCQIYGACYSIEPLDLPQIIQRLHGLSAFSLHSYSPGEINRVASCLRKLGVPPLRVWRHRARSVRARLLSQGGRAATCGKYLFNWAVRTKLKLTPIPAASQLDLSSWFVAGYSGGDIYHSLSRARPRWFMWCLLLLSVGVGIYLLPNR
Under this convention, label 1 denotes IC50 strictly below 6 µM and label 0 denotes IC50 at or above 6 µM.

| structure-smiles | assigned-category |
| --- | --- |
| O=C(O)c1nc(-c2ccccc2)nc(O)c1O | label 0 |

Q. Hello, is IC50 of the following compound strictly smaller than 6 µM? `O=C(NS(=O)(=O)C(F)(F)F)c1nc(-c2cccs2)[nH]c(=O)c1O`
A. label 0

Q. Hello, I'm reviewing records and need to know if IC50 of `Cn1c(-c2cccs2)nc(C(=O)O)c(O)c1=O` is below 6 µM. Could you check?
A. label 1

Q. Input `O=C(O)C(=O)/C=C(\O)c1ccccc1` ; condition: IC50 strictly below 6 µM. Does it hold?
A. label 1

Q. Please determine if `COc1nc(-c2cccs2)nc(C(=O)O)c1O` is below 6 µM in terms of IC50.
A. label 0

Q. Regarding `O=C(O)c1nc(-c2cccs2)nc(O)c1O` , kindly confirm whether its IC50 is beneath 6 µM.
A. label 1

Provenance of the data: ChEMBL document CHEMBL1137893
